assay.summary: qHTS assay to identify small molecule agonists of the androgen receptor (AR) signaling pathway in the presence of an antagonist - cell viability counter screen (AID 1259379); note: nearly all actives have a fitted effect of over 25% in size
experimental.parameters: MDA-kb2 viability, CellTiter-Fluor, 16 h; series mostly up to 92.4 µM
Inconclusive results are not listed. The source made the active and inactive calls. Calls come from the whole dose curve; as a rule, active = well fitted cell-killing curve with a large enough effect in the repeat runs; inconclusive = weak or mixed curves, or effect the other way; inactive = flat fitted curve, though single readings scatter.
Outcome codes: 1 (yes) (active), 0 (no) (inactive)

{"columns": ["compound", "assigned.class"],
 "data": [
  ["CCCCCCCCSCc1cc(C)c(O)c(CSCCCCCCCC)c1", "0 (no)"],
  ["C/C=C/C(=O)OCC(C)C", "0 (no)"],
  ["Cc1ccc2n[nH]nc2c1", "0 (no)"],
  ["C/C(=N\\[Si](C)(C)C)O[Si](C)(C)C", "0 (no)"],
  ["CC1(C)[C@H]2CC[C@]1(C)C(=O)C2", "0 (no)"],
  ["CN(C[C@@H](CC[N+]12CCC(C3CCCCC3)(CC1)CC2)c1ccc(Cl)c(Cl)c1)C(=O)c1cc(C(F)(F)F)cc(C(F)(F)F)c1", "1 (yes)"],
  ["Cn1ccnc1", "0 (no)"],
  ["CCc1cccc(C)c1N(C(=O)CS(=O)(=O)O)C(C)COC (stereo not drawn)", "0 (no)"],
  ["Cc1ccc2sc3cccc(C)c3c2c1", "0 (no)"],
  ["CN(C/C=C/c1ccccc1)Cc1cccc2ccccc12", "0 (no)"],
  ["NC(=O)C1CO1 (stereo not drawn)", "0 (no)"],
  ["O=C(NCc1ncc(C(F)(F)F)cc1Cl)c1c(Cl)cccc1Cl", "1 (yes)"],
  ["O=[N+]([O-])c1ccc(O)c2ncccc12", "1 (yes)"],
  ["N#Cc1ccc(C/C(=N/NC(=O)Nc2ccc(OC(F)(F)F)cc2)c2cccc(C(F)(F)F)c2)cc1", "0 (no)"],
  ["COc1c(Br)cc(Br)c(C)c1Br", "0 (no)"],
  ["CC(C)c1ccc2sc3ccccc3c(=O)c2c1", "0 (no)"],
  ["C=C(C)CCO", "0 (no)"],
  ["C1=CCCC1", "0 (no)"],
  ["Cc1cc(F)ccc1-c1cc(N2CC[C@@H](O)[C@H]2CO)ncc1N(C)C(=O)C(C)(C)c1cc(C(F)(F)F)cc(C(F)(F)F)c1", "1 (yes)"],
  ["CSc1nnc(C(C)(C)C)c(=O)[nH]1", "0 (no)"],
  ["CCc1c(C)cc(N)c(CC)c1N", "0 (no)"],
  ["Nc1ccc(Oc2cccc(Oc3ccc(N)cc3)c2)cc1", "0 (no)"],
  ["CCN(CC)c1ccc(N=Nc2ccccc2)cc1", "1 (yes)"],
  ["c1ccc(-c2ccccc2-c2ccccc2)cc1", "0 (no)"],
  ["CC(C=O)c1ccccc1 (stereo not drawn)", "0 (no)"],
  ["S=C1NC=NC2N=CNC12 (stereo not drawn)", "0 (no)"],
  ["Cc1cccc2c1ccc1ccccc12", "0 (no)"],
  ["Oc1ccc(Cl)cc1C1CCCC1", "0 (no)"]
]}

---

assay.summary: qHTS assay to identify small molecule antagonists of the androgen receptor (AR) signaling pathway using the MDA cell line in the presence of 0.5 nM R1881 - cell viability counter screen (AID 1259242); note: % is set by controls: 0 for no effect and ±100 for the full control effect; nearly all actives have a fitted effect of over 45% in size
experimental.parameters: MDA-kb2 viability, CellTiter-Fluor protease fluorescence, 16 h; series mostly up to 92.4 µM
Results filed as inconclusive are left out. Calls of active or inactive are those of the source. The call rests on the fitted dose curve; in most records, active means well fitted cell-killing curve with a large enough effect in the repeat runs; inconclusive means weak or mixed curves, or effect the other way; inactive means flat fitted curve, though single readings scatter.
quantity.name: viability change, negative = cytotoxic

{"columns": ["compound", "quantity.name", "measured.result"],
 "data": [
  ["O=C(O)CN(CCCN(CC(=O)O)CC(=O)O)CC(=O)O", "viability change, negative = cytotoxic", "0.128% [at 19 µM] (inactive)"],
  ["O=C(O)C[C@H](O)C[C@H](O)/C=C/c1c(C2CC2)nc2ccccc2c1-c1ccc(F)cc1", "viability change, negative = cytotoxic", "-6.18% [at 19 µM] (inactive)"],
  ["COc1cc2ncnc(Nc3cccc(Cl)c3)c2cc1OC", "viability change, negative = cytotoxic", "-6.19% [at 19 µM] (inactive)"],
  ["CCCCCCCCCCCCS(=O)(=O)Cl", "viability change, negative = cytotoxic", "-2.53% [at 19 µM] (inactive)"],
  ["CCCCNc1ccc(NCCCC)c2c1C(=O)c1ccccc1C2=O", "viability change, negative = cytotoxic", "-9.45% [at 19 µM] (inactive)"],
  ["C=CC(=O)OCCOC1C2CCC1C1CC=CC12 (stereo unspecified)", "viability change, negative = cytotoxic", "0.35% [at 19 µM] (inactive)"]
]}
